B1: TRIB1 (parent)
chain: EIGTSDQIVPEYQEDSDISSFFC

# Variants of: B1
# procedure_summary: protein stability index of a GFP-peptide fusion (GPS, HEK-293T) (PSI 1-6); higher = more stable;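 also: lentivirally expressed fusions sorted by FACS into six bins by GFP to DsRed ratio, PSI derived from sequencing read proportions per bin multiplied by bin number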
# conditions: c terminus: native
Label 1 (yes) when protein stability index is at or above 3; anything below gets 0 (no).

## Input Can F21A be said to have protein stability index at or above 3?
## Output 1 (yes)

## Input Can D17N be said to have protein stability index at or above 3?
## Output 1 (yes)

## Input Can V9L be said to have protein stability index at or above 3?
## Output 1 (yes)

## Input Can E11I be said to have protein stability index at or above 3?
## Output 1 (yes)

## Input Can E1V be said to have protein stability index at or above 3?
## Output 0 (no)

## Input Can D15N be said to have protein stability index at or above 3?
## Output 1 (yes)

## Input Can S20N be said to have protein stability index at or above 3?
## Output 0 (no)

## Input Can I18Y be said to have protein stability index at or above 3?
## Output 1 (yes)

## Input Can E1P be said to have protein stability index at or above 3?
## Output 1 (yes)

## Input Can S19I be said to have protein stability index at or above 3?
## Output 0 (no)

## Input Can I2W be said to have protein stability index at or above 3?
## Output 0 (no)

## Input Can I2F be said to have protein stability index at or above 3?
## Output 0 (no)

## Input Can E1I be said to have protein stability index at or above 3?
## Output 0 (no)

## Input Can D6C be said to have protein stability index at or above 3?
## Output 1 (yes)

## Input Can E14K be said to have protein stability index at or above 3?
## Output 1 (yes)

## Input Can E1C be said to have protein stability index at or above 3?
## Output 0 (no)

## Input Can D17S be said to have protein stability index at or above 3?
## Output 1 (yes)

## Input Can Q13M be said to have protein stability index at or above 3?
## Output 0 (no)

## Input Can T4L be said to have protein stability index at or above 3?
## Output 0 (no)

## Input Can P10E be said to have protein stability index at or above 3?
## Output 1 (yes)

## Input Can Y12P be said to have protein stability index at or above 3?
## Output 1 (yes)

## Input Can Q13G be said to have protein stability index at or above 3?
## Output 0 (no)

## Input Can D15S be said to have protein stability index at or above 3?
## Output 1 (yes)

## Input Can D6V be said to have protein stability index at or above 3?
## Output 1 (yes)

## Input Can I8M be said to have protein stability index at or above 3?
## Output 1 (yes)

## Input Can Y12N be said to have protein stability index at or above 3?
## Output 1 (yes)

## Input Can F21R be said to have protein stability index at or above 3?
## Output 1 (yes)

## Input Can Q7S be said to have protein stability index at or above 3?
## Output 1 (yes)

## Input Can I8K be said to have protein stability index at or above 3?
## Output 1 (yes)

## Input Can P10M be said to have protein stability index at or above 3?
## Output 1 (yes)

## Input Can S19A be said to have protein stability index at or above 3?
## Output 1 (yes)

## Input Can F22Q be said to have protein stability index at or above 3?
## Output 1 (yes)

## Input Can E1N be said to have protein stability index at or above 3?
## Output 0 (no)

## Input Can E11A be said to have protein stability index at or above 3?
## Output 1 (yes)

## Input Can P10D be said to have protein stability index at or above 3?
## Output 1 (yes)

## Input Can D15E be said to have protein stability index at or above 3?
## Output 0 (no)

## Input Can D17I be said to have protein stability index at or above 3?
## Output 1 (yes)

## Input Can Q13P be said to have protein stability index at or above 3?
## Output 1 (yes)

## Input Can T4M be said to have protein stability index at or above 3?
## Output 0 (no)

## Input Can F21L be said to have protein stability index at or above 3?
## Output 1 (yes)

## Input Can V9G be said to have protein stability index at or above 3?
## Output 1 (yes)

## Input Can G3V be said to have protein stability index at or above 3?
## Output 0 (no)

## Input Can E11P be said to have protein stability index at or above 3?
## Output 1 (yes)

## Input Can F22G be said to have protein stability index at or above 3?
## Output 1 (yes)

## Input Can S5V be said to have protein stability index at or above 3?
## Output 1 (yes)

## Input Can D6H be said to have protein stability index at or above 3?
## Output 1 (yes)

## Input Can E11T be said to have protein stability index at or above 3?
## Output 0 (no)

## Input Can Q7K be said to have protein stability index at or above 3?
## Output 1 (yes)

## Input Can T4E be said to have protein stability index at or above 3?
## Output 0 (no)

## Input Can C23L be said to have protein stability index at or above 3?
## Output 0 (no)

## Input Can S19M be said to have protein stability index at or above 3?
## Output 0 (no)

## Input Can D15Y be said to have protein stability index at or above 3?
## Output 0 (no)

## Input Can S19C be said to have protein stability index at or above 3?
## Output 0 (no)

## Input Can I2V be said to have protein stability index at or above 3?
## Output 1 (yes)

## Input Can S16W be said to have protein stability index at or above 3?
## Output 0 (no)

## Input Can D17M be said to have protein stability index at or above 3?
## Output 1 (yes)

## Input Can C23G be said to have protein stability index at or above 3?
## Output 1 (yes)

## Input Can F22V be said to have protein stability index at or above 3?
## Output 1 (yes)

## Input Can F22S be said to have protein stability index at or above 3?
## Output 1 (yes)

## Input Can I18D be said to have protein stability index at or above 3?
## Output 1 (yes)

## Input Can I18Q be said to have protein stability index at or above 3?
## Output 1 (yes)

## Input Can F22N be said to have protein stability index at or above 3?
## Output 1 (yes)

## Input Can I18H be said to have protein stability index at or above 3?
## Output 1 (yes)

## Input Can I18N be said to have protein stability index at or above 3?
## Output 1 (yes)

## Input Can D6W be said to have protein stability index at or above 3?
## Output 1 (yes)

## Input Can I8D be said to have protein stability index at or above 3?
## Output 1 (yes)

## Input Can C23S be said to have protein stability index at or above 3?
## Output 0 (no)

## Input Can E1K be said to have protein stability index at or above 3?
## Output 0 (no)

## Input Can S16P be said to have protein stability index at or above 3?
## Output 0 (no)

## Input Can D15A be said to have protein stability index at or above 3?
## Output 1 (yes)

## Input Can D15H be said to have protein stability index at or above 3?
## Output 1 (yes)

## Input Can E11R be said to have protein stability index at or above 3?
## Output 1 (yes)

## Input Can T4D be said to have protein stability index at or above 3?
## Output 0 (no)

## Input Can E11M be said to have protein stability index at or above 3?
## Output 1 (yes)

## Input Can Q13N be said to have protein stability index at or above 3?
## Output 0 (no)

## Input Can V9E be said to have protein stability index at or above 3?
## Output 1 (yes)

## Input Can S5E be said to have protein stability index at or above 3?
## Output 0 (no)

## Input Can Q13W be said to have protein stability index at or above 3?
## Output 0 (no)

## Input Can Q13K be said to have protein stability index at or above 3?
## Output 1 (yes)

## Input Can Y12A be said to have protein stability index at or above 3?
## Output 1 (yes)
